Numbers sourced from patent US20080058300A1.

Biological target: MDCK cells expressing norepinephrine transporters (Homo sapiens)
Sequence (P23975 whole entry): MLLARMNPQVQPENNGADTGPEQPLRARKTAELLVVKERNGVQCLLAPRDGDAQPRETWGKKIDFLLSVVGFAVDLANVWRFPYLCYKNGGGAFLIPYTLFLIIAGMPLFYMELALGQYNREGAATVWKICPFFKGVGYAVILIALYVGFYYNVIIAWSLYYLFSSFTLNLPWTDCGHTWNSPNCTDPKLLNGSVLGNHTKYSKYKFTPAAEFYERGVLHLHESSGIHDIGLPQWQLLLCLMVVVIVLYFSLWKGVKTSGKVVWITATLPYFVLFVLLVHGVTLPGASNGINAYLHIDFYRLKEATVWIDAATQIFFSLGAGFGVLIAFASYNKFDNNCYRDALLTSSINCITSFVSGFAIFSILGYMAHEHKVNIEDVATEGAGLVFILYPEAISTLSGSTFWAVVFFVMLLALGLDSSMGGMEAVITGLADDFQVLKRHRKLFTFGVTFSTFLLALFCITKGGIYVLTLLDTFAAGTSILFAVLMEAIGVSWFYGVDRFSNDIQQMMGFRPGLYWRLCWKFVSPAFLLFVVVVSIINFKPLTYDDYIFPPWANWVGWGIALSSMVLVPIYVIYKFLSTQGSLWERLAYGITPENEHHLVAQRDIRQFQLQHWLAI
Assay: Cellular uptake of [3H] Norepinephrine
Conditions: MDCK cells; 10-minute incubation at room temperature; read-out: IC50, inhibition of Norepinephrine uptake
Readout kind: pIC50
Note: pIC50 values are expressed as the negative base-10 logarithm of concentration in M.

Prompt: Any idea what its pIC50 is? The compound is CC(C)[C@@H](CC[C@@H](C)[C@H]1CC[C@H]2[C@@H]3[C@H](O)C[C@H]4C[C@@H](NCCCNCCCCNCCCN)CC[C@]4(C)[C@H]3CC[C@]12C)OS(=O)(=O)O
Completion: 6.14

====

Target: Norepinephrine Transporter (NET) (Homo sapiens)
Assay: Radioligand binding assay, [125I] RTI-55, Norepinephrine Transporter
Details: human recombinant, MDCK cell membranes; [125I] RTI-55 0.20 nM; 3 hours at 4° C.; read-out: ˜IC50, inhibition of binding to NET
Readout kind: pIC50
Note: pIC50 values are expressed as the negative base-10 logarithm of concentration in M.

Prompt: Any idea what its pIC50 is? The compound is CC(C)[C@@H](CC[C@@H](C)[C@H]1CC[C@H]2[C@@H]3[C@H](O)C[C@H]4C[C@@H](NCCCNCCCCNCCCN)CC[C@]4(C)[C@H]3CC[C@]12C)OS(=O)(=O)O
Completion: 5.49

====

Molecular target: TCPTP (Homo sapiens, UniProt P17706)
Construct: MDS Pharma (contract assay); host or cells: E. coli
Sequence (P17706 whole entry): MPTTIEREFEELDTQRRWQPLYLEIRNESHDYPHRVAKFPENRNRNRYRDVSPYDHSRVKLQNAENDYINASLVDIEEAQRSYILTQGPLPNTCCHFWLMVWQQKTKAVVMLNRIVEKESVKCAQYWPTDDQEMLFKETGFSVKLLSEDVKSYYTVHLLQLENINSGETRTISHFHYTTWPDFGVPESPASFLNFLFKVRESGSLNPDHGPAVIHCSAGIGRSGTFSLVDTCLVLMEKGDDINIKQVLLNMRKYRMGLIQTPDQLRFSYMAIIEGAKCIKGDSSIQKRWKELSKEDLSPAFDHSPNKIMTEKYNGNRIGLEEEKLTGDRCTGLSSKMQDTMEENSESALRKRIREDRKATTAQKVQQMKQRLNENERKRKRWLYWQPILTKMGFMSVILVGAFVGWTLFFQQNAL
Assay: TCPTP enzyme inhibition assay (DiFMUP substrate, spectrofluorimetric)
Format: biochemical
Settings: human recombinant protein expressed in E. Coli; DiFMUP 10 μM; 60-minute incubation at 37° C.; estimated
Description: In the PTP1B assay, phosphatase activity was quantitated through ELISA analysis of remaining tyrosine phosphopeptide after 30-minute incubations at room temperature with various concentrations of 1436 (0.05 μM to […]). […] The TCPTP assay required a 15-minute preincubation of enzyme and substrate at 37° C. followed by 60-minute incubations at 37° C. with various concentrations of 1436 (0.5 μM to 50 μM). TCPTP activity was assessed by spectrofluorimetric quantitation of DiFMU.
Readout kind: IC50

Prompt: Any idea what its IC50 is? The compound is CC(C)[C@@H](CC[C@@H](C)[C@H]1CC[C@H]2[C@@H]3[C@H](O)C[C@H]4C[C@@H](NCCCNCCCCNCCCN)CC[C@]4(C)[C@H]3CC[C@]12C)OS(=O)(=O)O
Completion: > 50 µM
